Experiment: Solubility testing of peptides at different pH
Assay type: physicochemical
Settings: 50 mM phosphate buffer pH 7.4; target concentration 1 mg/ml; 2 hours agitation; read-out: Solubility Buffer pH 7.4
Protocol: Prior to the solubility measurement of a synthesized peptide batch, its purity was determined through UPLC/MS (methods B-G). For solubility testing the target concentration was 1 mg pure compound/ml. […] The solubility was determined by the comparison of the UV peak area of 2 μL-injections of a buffered sample diluted 1:5 with a standard curve of a dimethyl sulfoxide reference sample of the diluted in dimethyl sulfoxide with known concentration. […]
Starred links: 1 amine or outer side, 2 acyl side, 3 side chain; linkers in the order of their positions; H or OH if unused. Positions of bridges follow the written chain, without caps; N, C: chain ends. Non-standard residues stand in square brackets, D forms with d. Residues, ends and D or L forms follow the SMILES beside them. *: point of attachment. X3 = CN(CCCCC(=O)N[C@@H](CS[*:2])C(=O)[*:1])[*:3]; Trp(7-Me) = Cc1cccc2c(C[C@H](N)C(=O)O)c[nH]c12; 2Nal = N[C@@H](Cc1ccc2ccccc2c1)C(=O)O; AEF = NCCOc1ccc(C[C@H](N)C(=O)O)cc1; 3Pal = N[C@@H](Cc1cccnc1)C(=O)O; αMeL = CC(C)C[C@](C)(N)C(=O)O; Thp = NC1(C(=O)O)CCOCC1; Me2NCH2CH2 = CN(C)CC*; Aib = CC(C)(N)C(=O)O; Ava = NCCCCC(=O)O; Sar = CNCC(=O)O
Catalogue of compounds with associated solubility at 2 h

Please review the following examples before continuing.
compound	solubility at 2 h
CC(=O)N[C@H]1CCCCNC(=O)[C@@H]2CSSC[C@H](NC(=O)[C@H](CCC(N)=O)NC(=O)[C@H](Cc3c[nH]c4ccccc34)NC1=O)C(=O)N[C@@H](Cc1ccc(OCCN)cc1)C(=O)N[C@@H](Cc1ccc3ccccc3c1)C(=O)N[C@@](C)(CC(C)C)C(=O)N[C@H](C(=O)N[C@@H](C)C(=O)NCC(N)=O)CCC(=O)N(C)CCCCC(=O)N2 [compound 18] (Ac-KWQC[AEF][2Nal][αMeL]EAG-NH2; linker 1-4-8 via X3)	< 10 µg/mL
CC(=O)NCCCC[C@@H]1NC(=O)[C@H](Cc2c[nH]c3c(C)cccc23)NC(=O)[C@@H](NC(C)=O)CCCCNC(=O)[C@@H]2CSSC[C@H](NC1=O)C(=O)N[C@@H](Cc1ccc(OCCN(C)C)cc1)C(=O)N[C@@H](Cc1ccc3ccccc3c1)C(=O)NC(C)(C)C(=O)N[C@H](C(=O)N[C@@H](CC(N)=O)C(=O)N[C@@H](Cc1c[nH]cn1)C(N)=O)CCC(=O)N(C)CCCCC(=O)N2 [compound 60] (Ac-K[Trp(7-Me)]K(Ac)CY(Me2NCH2CH2)[2Nal][Aib]ENH-NH2; linker 1-4-8 via X3)	≥ 930 µg/mL
Cc1cccc2c(C[C@@H]3NC(=O)[C@H]([C@@H](C)O)NC(=O)[C@H](CC(N)=O)NC(=O)[C@@H]4CSSC[C@H](NC(=O)[C@H](CC(C)C)NC3=O)C(=O)N[C@@H](Cc3ccc(OCCN(C)C)cc3)C(=O)N[C@@H](Cc3ccc5ccccc5c3)C(=O)NC3(CCOCC3)C(=O)N[C@H](C(=O)N[C@@H](CC(N)=O)C(=O)N[C@@H](Cc3cccnc3)C(=O)N(C)CC(N)=O)CCC(=O)NCCCCC(=O)N4)c[nH]c12 [compound 24] ([Ava]CNT[Trp(7-Me)]LCY(Me2NCH2CH2)[2Nal][Thp]EN[3Pal][Sar]-NH2; disulfide 2-7; lactam N-11)	≥ 1000 µg/mL
CC(=O)N[C@H]1CCCCNC(=O)[C@@H]2CSSC[C@H](NC(=O)[C@H](CCC(N)=O)NC(=O)[C@H](Cc3c[nH]c4ccccc34)NC1=O)C(=O)N[C@@H](Cc1ccc(OCCN)cc1)C(=O)N[C@@H](Cc1ccc3ccccc3c1)C(=O)NC(C)(C)C(=O)N[C@H](C(=O)N[C@@H](C)C(=O)N[C@H](CC(C)C)C(N)=O)CCC(=O)N(C)CCCCC(=O)N2 [compound 19] (Ac-KWQC[AEF][2Nal][Aib]EA[dL]-NH2; linker 1-4-8 via X3)	< 10 µg/mL
CC(=O)N[C@H]1CCCCNC(=O)[C@@H]2CSSC[C@H](NC(=O)[C@H](CCC(N)=O)NC(=O)[C@H](Cc3c[nH]c4ccccc34)NC1=O)C(=O)N[C@@H](Cc1ccc(OCCN)cc1)C(=O)N[C@@H](Cc1ccc3ccccc3c1)C(=O)NC(C)(C)C(=O)N[C@H](C(=O)N[C@@H](CC(N)=O)C(=O)N[C@@H](CC(N)=O)C(N)=O)CCC(=O)N(C)CCCCC(=O)N2 [compound 12] (Ac-KWQC[AEF][2Nal][Aib]ENN-NH2; linker 1-4-8 via X3)	190 µg/mL
C[C@@H](O)[C@@H]1NC(=O)[C@H](CC(N)=O)NC(=O)[C@@H]2CSSC[C@H](NC(=O)[C@H](CCC(N)=O)NC(=O)[C@H](Cc3c[nH]c4ccccc34)NC1=O)C(=O)N[C@@H](Cc1ccc(OCCN(C)C)cc1)C(=O)N[C@H](Cc1ccc3ccccc3c1)C(=O)NC(C)(C)C(=O)N[C@H](C(=O)N[C@@H](CC(N)=O)C(=O)N[C@@H](CC(N)=O)C(N)=O)CCC(=O)NCCCCC(=O)N2 [compound 8]	≥ 1020 µg/mL
CC(=O)NCCCC[C@@H]1NC(=O)[C@H](Cc2c[nH]c3c(C)cccc23)NC(=O)[C@H]([C@@H](C)O)NC(=O)[C@H](CC(N)=O)NC(=O)[C@@H]2CSSC[C@H](NC1=O)C(=O)N[C@@H](Cc1ccc(OCCN(C)C)cc1)C(=O)N[C@@H](Cc1ccc3ccccc3c1)C(=O)NC(C)(C)C(=O)N[C@H](C(=O)N[C@@H](CC(N)=O)C(=O)N[C@@H](Cc1c[nH]cn1)C(=O)N(C)CC(N)=O)CCC(=O)NCCCCC(=O)N2 [compound 45] ([Ava]CNT[Trp(7-Me)]K(Ac)CY(Me2NCH2CH2)[2Nal][Aib]ENH[Sar]-NH2; disulfide 2-7; lactam N-11)	≥ 1180 µg/mL
CC(=O)N[C@H]1CCCCNC(=O)[C@@H]2CSSC[C@H](NC(=O)[C@H](CCC(N)=O)NC(=O)[C@H](Cc3c[nH]c4ccccc34)NC1=O)C(=O)N[C@@H](Cc1ccc(OCCN)cc1)C(=O)N[C@@H](Cc1ccc3ccccc3c1)C(=O)NC1(CCOCC1)C(=O)N[C@H](C(=O)N[C@@H](CC(N)=O)C(=O)NCC(N)=O)CCC(=O)N(C)CCCCC(=O)N2 [compound 16] (Ac-KWQC[AEF][2Nal][Thp]ENG-NH2; linker 1-4-8 via X3)	≥ 1000 µg/mL

Please turn your attention to the following entry.
Provide one value: measured solubility at 2 h of CC[C@H](C)[C@H](NC(=O)[C@H](Cc1cccnc1)NC(=O)[C@H](CC(N)=O)NC(=O)[C@@H]1CCC(=O)NCCCCC(=O)N[C@H]2CSSC[C@H](NC(=O)[C@H](CCCCNC(C)=O)NC(=O)[C@H](Cc3c[nH]c4ccccc34)NC(=O)[C@H]([C@@H](C)O)NC(=O)[C@H](CC(N)=O)NC2=O)C(=O)N[C@@H](Cc2ccc(OCCN(C)C)cc2)C(=O)N[C@@H](Cc2ccc3ccccc3c2)C(=O)NC(C)(C)C(=O)N1)C(N)=O [compound 37] ([Ava]CNTWK(Ac)CY(Me2NCH2CH2)[2Nal][Aib]EN[3Pal]I-NH2; disulfide 2-7; lactam N-11)
590 µg/mL
